# Assay Explanation: chemical genetic growth profiling, strain panel (AID 1159580);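 note: tested at 20 µM; growth read once vehicle control cultures reached saturation at 30 °C; 1 = growth at the plate median or of vehicle wells; lower values mean less growth of the strain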
# Study Conditions: S. cerevisiae deletion strains, growth OD, locus YFR010W, strain ubp6, stronger effect = lower value
In all, about 5,500 compounds went through this assay and about 2,000 (36%) were called active. About 18% were inconclusive and are not listed. The list shows a part of the results.
Mark fulfilled for normalized growth under 1, not fulfilled if at or over.

In: Dear colleague, could you confirm whether normalized growth of CC12CCC3C(=CCc4cc(O)ccc43)C1CCC2=O (stereo not drawn) falls below 1? Thanks.
Out: fulfilled

In: Dear colleague, could you confirm whether normalized growth of O=C(O)[C@@H](S)[C@@H](S)C(=O)O falls below 1? Thanks.
Out: fulfilled

In: Dear colleague, could you confirm whether normalized growth of Clc1ccc(CSC(Cn2ccnc2)c2ccc(Cl)cc2Cl)cc1 (stereo not drawn) falls below 1? Thanks.
Out: fulfilled

In: Dear colleague, could you confirm whether normalized growth of Clc1ccc(C(Cn2ccnc2)OCc2ccsc2Cl)c(Cl)c1 (stereo not drawn) falls below 1? Thanks.
Out: fulfilled

In: Dear colleague, could you confirm whether normalized growth of O=C1CCCN1CC#CCN1CCCC1 falls below 1? Thanks.
Out: not fulfilled

In: Dear colleague, could you confirm whether normalized growth of N[C@@H](C(=O)O)[C@@H](O)[C@H](O)[C@H](O)CO falls below 1? Thanks.
Out: not fulfilled

====

# Assay Explanation: chemical genetic growth profiling, strain panel (AID 1159580)
# Study Conditions: S. cerevisiae deletion strains, growth OD, locus YOR270C, strain vph1, stronger effect = lower value
About 2,000 (36%) of roughly 5,500 compounds were called active. Inconclusive results (about 18%) are left out. Some of the results follow.
Measured Quantity: normalized growth

Before answering, review these 2 worked examples.
1) CN(C)CCC(c1ccccc1)c1ccccn1 (stereo not given); 0.997 (inactive)
2) O=c1cccc2n1CC1CC2CN2CCCC[C@@H]12 (stereo not given in full); 0.987 (inactive)

For each of the compounds below, state normalized growth.
1. c1ccc2c(CC3=NCCN3)cccc2c1
2. C[C@]12C=CC(=O)C=C1CCC1C2[C@@H](O)C[C@@]2(C)C1CC[C@]2(O)C(=O)CO (stereo not given in full)
3. C=NC(C(=O)NC1C(=O)N2C1SC(C)(C)C2C(=O)O)c1ccccc1 (stereo not given)

Out:
0.914 (inactive)
0.989 (inactive)
0.993 (inactive)

====

# Assay Explanation: chemical genetic growth profiling, strain panel (AID 1159580)
# Study Conditions: S. cerevisiae deletion strains, growth OD, locus YOR316C, strain cot1, stronger effect = lower value
Among all 5,500 compounds or so, about 2,000 (36%) were called active. Another 18% or so got no clear call; they are omitted. This is one part of the list.
Measured Quantity: normalized growth
Numbers only.

Before answering, review these 3 worked examples.
1) CCCn1c(=O)c2[nH]c(C3CCCC3)nc2n(CCC)c1=O; 0.977
2) O=c1[nH]c(=O)n(C2C[C@H](O)[C@@H](CO)O2)cc1C(F)(F)F (some centres undefined); 0.983
3) Fc1ccc([C@@H]2CCNC[C@H]2COc2ccc3c(c2)OCO3)cc1; 1

Now for a further molecule.
In: Answer with the recorded normalized growth for the molecule listed here: CN1CCC[C@@H]1CCO[C@](C)(c1ccccc1)c1ccc(Cl)cc1
Out: 0.993

====

Would you kindly list normalized growth for each of these compounds?
# Assay Explanation: chemical genetic growth profiling, strain panel (AID 1159580)
# Study Conditions: S. cerevisiae deletion strains, growth OD, locus YGR092W, strain DBF2, stronger effect = lower value
Among all 5,500 compounds or so, about 2,000 (36%) were called active. Another 18% or so got no clear call; they are omitted. The list shows a part of the results.
Give bare numbers.

Before answering, review these 5 worked examples.
1) COc1ccc2c(c1)CCc1sc(NC(=O)c3ccco3)nc1-2; 0.803
2) CC(C)(C)C1=C(C#N)C(c2c(Cl)cccc2Cl)C(C#N)=C(N)O1 (stereo not drawn); 0.98
3) O=C(NNc1ccccc1)c1cc(-c2ccc(Cl)cc2)oc1C(F)(F)F; 0.434
4) C/C(=N/NC(=S)NCC(C)(C)C)c1cc(F)cc(Cl)c1O; 0.716
5) Cc1ccc(NC(=S)C(C#N)C(=O)N2CCOCC2)c(C)c1 (stereo not drawn); 1.02

For each of the compounds below, state normalized growth.
1. CCOC(=O)c1sc(S(C)=NC(=O)Nc2ccc(Cl)cc2)c2c1CCC=C2 (stereo not drawn)
2. Cn1nccc1-c1cc(Cl)cc(Cl)c1O
3. Clc1ccc(CSc2nccn2-c2cc(Cl)ccc2Cl)cc1
4. O=S(=O)(NCc1ccc(C(F)(F)F)cc1)c1cc(Br)c(Br)s1
5. N#CC(C#N)=Cc1c(-c2ccccc2Cl)[nH]c2ccccc12
6. Clc1cc(Cl)cc(C=NCc2ccccc2)c1
7. O=S(=O)(NCc1ccc(C(F)(F)F)cc1)c1cccc(C(F)(F)F)c1
8. CC1C(c2ccccc2)N(C)C(c2ccccc2)CC1(O)c1ccc(F)cc1 (stereo not drawn)

Out:
0.947
0.722
0.801
0.801
0.938
0.222
0.942
0.968

====

# Assay Explanation: chemical genetic growth profiling, strain panel (AID 1159580);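 note: tested at 20 µM; growth read once vehicle control cultures reached saturation at 30 °C; 1 = growth at the plate median or of vehicle wells; lower values mean less growth of the strain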
# Study Conditions: S. cerevisiae deletion strains, growth OD, locus YER015W, strain faa2, stronger effect = lower value
The whole screen tested about 5,500 compounds, of which about 2,000 (36%) were called active. Another 18% or so got no clear call; they are omitted. The list shows a part of the results.
Measured Quantity: normalized growth
Numbers only.

1) CC(=O)OC/C=C(\C)CC/C=C(\C)CC/C=C(\C)CC/C=C(\C)CC/C=C(\C)CC/C=C(\C)CC/C=C(\C)CC/C=C(\C)CCC=C(C)C; 0.971

For each of the molecules below, state normalized growth.
1. CCCNC(=O)NS(=O)(=O)c1ccc(Cl)cc1
2. CC1C/C=C/C=C/C=C/C=C/C(O[C@@H]2O[C@H](C)[C@@H](O)[C@H](N)[C@@H]2O)CC2OC(O)(CC(O)CC3OC3/C=C/C(=O)O1)CC(O)C2C(=O)O (stereo partly specified)
3. C[C@]12CCC3c4ccc(O)cc4CCC3C1CCC2=O (stereo partly specified)
4. O=C(O)CCC1NCC2CC1CN1CCCCC21 (stereo unspecified)

Out:
1.02
0.823
1.01
0.966

====

Would you kindly list normalized growth for each of these molecules?
# Assay Explanation: chemical genetic growth profiling, strain panel (AID 1159580);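 note: tested at 20 µM; growth read once vehicle control cultures reached saturation at 30 °C; 1 = growth at the plate median or of vehicle wells; lower values mean less growth of the strain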
# Study Conditions: S. cerevisiae deletion strains, growth OD, locus YAL026C, strain drs2, stronger effect = lower value
Out of some 5,500 compounds screened, about 2,000 (36%) were called active. Roughly 18% stayed inconclusive and do not appear here. This is one part of the list.
Answers are plain numbers.

Before answering, review these 3 worked examples.
1. CCCNC(=O)NS(=O)(=O)c1ccc(Cl)cc1; 1.01
2. CC(=O)O[C@H]1CC[C@@]2(C)C(C[C@@H](OC(C)=O)[C@]3(C)C2CC[C@@]2(C)[C@H](c4ccoc4)OC(=O)[C@H]4O[C@]423)C1(C)C (stereo not given in full); 1
3. COC1C=CC23c4cc5c(cc4CN(CC2O)[C@@H]3C1)OCO5 (stereo not given in full); 0.956

For each of the molecules below, state normalized growth.
1. CC(=O)O[C@H]1C[C@@H](OC(C)=O)C(C)(C)C2C[C@@H](O)[C@]3(C)C(CC[C@@]4(C)[C@H](c5ccoc5)OC(=O)[C@H]5O[C@]543)[C@]21C (stereo not given in full)
2. Cc1cc(/C=C/c2ccc3cc(N(C)C)ccc3[n+]2C)c(C)n1-c1ccccc1
3. NCCCCCC(=O)O
4. CC(O)(P(=O)(O)O)P(=O)(O)O

Out:
[0.985, 0.924, 1, 0.993]

For each of the molecules below, state normalized growth.
1. CC(=O)Oc1c2c(c3c(c1CC=C(C)C)O[C@]14C(=C[C@@H]5CC1C(C)(C)OC4(C/C=C(\C)C(=O)O)C5=O)C3=O)OC(C)(CCC=C(C)C)C=C2 (stereo not given in full)
2. NC(=O)CS(=O)C(c1ccccc1)c1ccccc1 (stereo not given)
3. CC(=O)O[C@@H]1CC2C(C)(C)[C@H](O)CC[C@]2(C)C2CC[C@@]3(C)[C@H](c4ccoc4)OC(=O)C4OC43[C@@]21C (stereo not given in full)

Out:
1: 0.979; 2: 1.04; 3: 1.03

====

# Assay Explanation: chemical genetic growth profiling, strain panel (AID 1159580);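 note: tested at 20 µM; growth read once vehicle control cultures reached saturation at 30 °C; 1 = growth at the plate median or of vehicle wells; lower values mean less growth of the strain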
# Study Conditions: S. cerevisiae deletion strains, growth OD, locus YDR318W, strain mcm21, stronger effect = lower value
The campaign covered roughly 5,500 compounds. About 2,000 (36%) were called active. Another 18% or so got no clear call; they are omitted. This is one part of the list.
Measured Quantity: normalized growth

1. CC(C)=CC1C(C(=O)OCc2cccc(Oc3ccccc3)c2)C1(C)C (stereo not drawn); 0.986 (inactive)

For each of the compounds below, state normalized growth.
1. Cc1cc(CC(=O)O)n(C)c1C(=O)c1ccc(Cl)cc1
2. Cc1cccc(C)c1NC(=O)C1CCCCN1C (stereo not drawn)
3. NCCCCC(=O)O
4. CN[C@@H]1C(OC2[C@H](O[C@H]3[C@H](O)[C@@H](O)[C@H](N=C(N)N)[C@@H](O)[C@@H]3N=C(N)N)OC(C)[C@]2(O)CO)OC(CO)C(O)C1O (stereo partly drawn)
5. O=C(O)CCCCCCCC(=O)O
6. COc1ccc(CCC(=O)c2c(O)cc(O[C@@H]3O[C@H](CO)C(O)[C@H](O)C3O[C@@H]3O[C@@H](C)[C@H](O)[C@@H](O)[C@H]3O)cc2O)cc1O (stereo partly drawn)

Out:
["1 (inactive)", "1.01 (inactive)", "0.992 (inactive)", "0.98 (inactive)", "0.981 (inactive)", "0.978 (inactive)"]

In: Answer with the recorded normalized growth for the compound listed here: NCCCC(=O)O
Out: 1.02 (inactive)
